System: NCI-H226
assay_comment: NCI tumour cell line growth inhibition, 48 h
Calls of active or inactive are those of the source. Cut-off read from the data, not from the text of the source: active = GI50 up to about 1.1 µM and inactive = higher.
Examples of compounds with documented GI50 follow.
measured_quantity: GI50

compound	reported_value
O=C1/C(=C/c2cccnc2)C(n2cccc2)c2c(Br)sc(Br)c21 (stereo not drawn)	41.3 µM (inactive)
O=C1CCCCC2N(C(c3ccccc3)c3ccccc3)CC[C@@]12c1ccccc1.O=C1CCCC[C@H]2N(C(c3ccccc3)c3ccccc3)CC[C@@]12c1ccccc1 (stereo partly drawn)	6.38 µM (inactive)
[N-]=[N+]=Nc1ccc(NCCCCCC(=O)ON2C(=O)CCC2=O)c([N+](=O)[O-])c1	> 100 µM (inactive)
CC1C[C@]2(C)C(=O)N(c3ccccc3)C(=N)[C@@H]2N(C)c2ccccc21 (stereo partly drawn)	> 100 µM (inactive)
CN(C)c1ccc(C2CC(=O)CC(c3ccc(N(C)C)cc3)C23C(=O)NC(=O)NC3=O)cc1 (stereo not drawn)	> 25 µM (inactive)
Cn1c(=O)c(C(=O)NC(=O)OCc2ccccc2)cn(CCSCCOC(=O)NCCCCCCNC(=O)OCCSCCn2cc(C(=O)NC(=O)OCc3ccccc3)c(=O)n(C)c2=O)c1=O	> 100 µM (inactive)
COc1c(-c2ccc3c(c2)OCO3)oc2cc3c(c(OC)c2c1=O)OCO3	18.7 µM (inactive)
O=C1Cc2c(-c3cccs3)cc(-c3ccccc3)nc2-c2ccccc2N1	81.8 µM (inactive)

* * *

Examples of compounds with documented GI50 follow.
Test system: SF-295
assay_comment: NCI tumour cell line growth inhibition, 48 h
Activity calls are given as the source filed them. Rule as the data show it: active = GI50 up to about 1.1 µM and inactive = higher.

compound	tested_system	GI50
Oc1c(Cl)c(Cl)c(Cl)c(Cl)c1Cl [PENTACHLOROPHENOL]	SF-295	17.2 µM (inactive)
CSc1nc(Nc2ccccc2Cl)c2c(N)nn(C)c2n1	SF-295	> 100 µM (inactive)
COC1OC(CO)C(O)C(OC(C)=O)C1NC(=O)N(CCCl)N=O (stereo unspecified)	SF-295	42.7 µM (inactive)
Cc1nc2ccccc2c(=O)n1NC(=O)c1ccccc1[N+](=O)[O-]	SF-295	> 100 µM (inactive)
CC(C)(C)OC(=O)C1CC[C@@H](CC(=O)Oc2ccc([N+](=O)[O-])cc2)N1 (stereo partly specified)	SF-295	> 100 µM (inactive)
c1ccc2c(c1)CC1COc3ccccc3C1O2 (stereo unspecified)	SF-295	64.4 µM (inactive)
COC(=O)C1=C(O)c2ccc(Cl)cc2S(=O)(=O)N1C	SF-295	60.5 µM (inactive)
C[N+]1([O-])C2CCC1CC(OC(=O)C(CO)c1ccccc1)C2 (stereo unspecified)	SF-295	> 100 µM (inactive)
CC(=O)NC1=CC(=O)c2cc(C)cc(O)c2C1=O	SF-295	19.2 µM (inactive)
O=c1oc2cc(/N=C/c3ccc4c(c3)OCO4)ccc2c2ccccc12	SF-295	58.6 µM (inactive)
Cc1ccc(/C=C2\NC(=S)N(CN3CCCCC3)C2=O)cc1	SF-295	44.6 µM (inactive)

* * *

Tested on: SN12C
assay_comment: NCI tumour cell line growth inhibition, 48 h
The source made the active and inactive calls. No stated cut-off is given here; in the data, active = GI50 up to about 1.1 µM and inactive = higher.
Possible outcomes: yes (1) for active, no (0) for inactive

compound	tested_system	assigned_label
C/C(=N/S(=O)(=O)c1ccc(Cl)c(Cl)c1)OCC(C)(C)C	SN12C	no (0)
Cc1cc2oc(C)c(S(=O)(=O)NC(=O)Nc3ccc(Cl)cc3)c(=O)c2c(=O)o1	SN12C	no (0)
O=C(O)C1CC(O)CN1 (stereo unspecified)	SN12C	no (0)
Cc1cc2c(c3oc(C(O)(CO)C4CO4)cc(=O)c13)C(=O)c1c(O)cccc1C2=O (stereo unspecified)	SN12C	yes (1)
CC1(C)Oc2ccc3c(=O)c4ccccc4oc3c2C1C(=O)O (stereo unspecified)	SN12C	no (0)
COC1OC(CO)C(O)C(OC(C)=O)C1NC(=O)N(CCCl)N=O (stereo unspecified)	SN12C	no (0)
COc1ccc(C2c3cc4c(cc3OC(NCCO)C2C)OCO4)cc1 (stereo unspecified)	SN12C	no (0)
COC(=O)C12OCC34C(CC5C(C)C6=CC(=O)OC6=CC5(C)C3C(O)C1O)OC(=O)C(OC(C)=O)C24 (stereo unspecified)	SN12C	no (0)
O=C1CCC2c3ccccc3NCN12 (stereo unspecified)	SN12C	no (0)
COC(=O)[C@@H]1CN(C(C)=O)C(=O)N1	SN12C	no (0)
Cc1ccc(-n2c(C)nc3c2C(=O)c2ccccc2C3=O)cc1	SN12C	no (0)
CSCCC(NC(=O)OCc1ccccc1)P(=O)(O)c1ccccc1 (stereo unspecified)	SN12C	no (0)
CC(C)(C)OC(=O)N1C(OP(=O)(Oc2ccccc2)Oc2ccccc2)=CSc2ccccc21	SN12C	no (0)
O=C1OCC(c2ccc(Cl)cc2)=C1Cl	SN12C	no (0)
COC(=O)C1CCC(=O)N1C(c1ccc(OC)cc1)c1ccc(OC)cc1 (stereo unspecified)	SN12C	no (0)
CN(C)CCOc1ccc2c(c1)C/C(=C/c1ncc([N+](=O)[O-])n1C)C2=O	SN12C	no (0)
O=C1c2cc(Cl)ccc2N=C(NCCCl)C2CSCN12 (stereo unspecified)	SN12C	no (0)
Cc1cnccc1/N=N/c1ccc(N(C)C)cc1	SN12C	no (0)
Cc1cccc2nc3cc(O)cc(O)c3c(O)c12	SN12C	no (0)
c1ccc2c(c1)[nH]c1c2nc2ccccn21	SN12C	no (0)
CC(=O)O[C@H]1C(=O)[C@@]2(C)[C@H]([C@H](OC(=O)c3ccccc3)[C@]3(O)C[C@H](OC(=O)[C@H](OC(=O)OCCC(O)CO)[C@@H](NC(=O)c4ccccc4)c4ccccc4)C(C)=C1C3(C)C)[C@]1(OC(C)=O)CO[C@@H]1C[C@@H]2O (stereo partly specified)	SN12C	yes (1)
CCOC(=O)C1Cc2c(ccc(OC)c2OC)C(=O)C1N (stereo unspecified)	SN12C	no (0)
Cc1nc2ccccc2c(=O)n1/N=C(\N=N\c1ccccc1)c1ccccc1Cl	SN12C	no (0)
CN(C)c1ccc(C(c2ccc(N(C)C)cc2)c2ccc([N+](=O)[O-])cc2)cc1	SN12C	no (0)
OC1CCCCCCCCCCC1SCCCCl (stereo unspecified)	SN12C	no (0)
CN1CC[C@]2(C)c3c(O)cccc3CC3CCCC1C32C (stereo partly specified)	SN12C	no (0)
Cc1nn(C)c2c1C(=O)N(C)CC(=O)N2C	SN12C	no (0)
Cc1ccccc1NC(=O)C(=O)CC(=O)c1c(C)[n+]([O-])c2ccccc2[n+]1[O-]	SN12C	no (0)
O=C(NCCCCN(CCCNC(=O)C(F)(F)F)Cc1ccc2ccccc2c1)C(F)(F)F	SN12C	no (0)
O=[PH](O)c1cccnc1	SN12C	no (0)
C/C(=N\Nc1nc2ccccc2s1)c1ccncn1	SN12C	yes (1)
CC(CC(=O)O)(CC(=O)O)c1ccccc1	SN12C	no (0)
COc1cc2c(=O)cnoc2cc1O	SN12C	no (0)
Cc1ccc(/C=C2\NC(=S)N(CN3CCCCC3)C2=O)cc1	SN12C	no (0)
CC(=O)SCCC1c2[nH]c3ccccc3c2CCN1O (stereo unspecified)	SN12C	no (0)
CCOC(=O)[C@@H]1OC(c2ccccc2)O[C@H]1C(=O)OCC	SN12C	no (0)
